Quantity Kind: melting point (°C)

# Smiles Notation, Quantitative Readout
measured = [
    ("O=C(O)COC[C@@H]1CC(c2ccc(-c3ccc(N4C[C@H](Cn5ccnn5)OC4=O)cc3F)cn2)=NO1", 190),
    ("CC(=O)NCCOC[C@@H]1CC(c2ccc(-c3ccc(N4C[C@H](Cn5ccnn5)OC4=O)cc3F)cn2)=NO1", 134),
]

* * *

Property: melting point; scope: individual compounds

# Compound, melting point (°C)
data = [
    ("O=C1O[C@@H](Cn2ccnn2)CN1c1ccc(-c2ccc(C3=NO[C@H](COCCCO)C3)nc2)c(F)c1", 176),
    ("[N-]=[N+]=NCCOC[C@@H]1CC(c2ccc(-c3ccc(N4C[C@H](Cn5ccnn5)OC4=O)cc3F)cn2)=NO1", 148),
    ("C=CCOC[C@@H]1CC(c2ccc(-c3ccc(N4C[C@H](Cn5ccnn5)OC4=O)cc3F)cn2)=NO1", 162),
    ("O=C1OC(Cn2ccnn2)CN1c1ccc(-c2ccc(C3=NO[C@H](COCCN4CCOCC4)C3)nc2)c(F)c1 (stereo in doubt)", 171),
    ("O=C1O[C@@H](Cn2ccnn2)CN1c1ccc(-c2ccc(C3=NO[C@H](COCCO)C3)nc2)c(F)c1", 162),
]

* * *

Where a name gives a salt, the structure may show the parent alone.
As shown below, each of these molecules has a reported melting point value.

# Molecule, melting point
rows = [
    ("CN(CCOC[C@@H]1CC(c2ccc(-c3ccc(N4C[C@H](Cn5ccnn5)OC4=O)cc3F)cn2)=NO1)CC(=O)O", "135 to 140 °C"),
    ("CC(C)(O)COC[C@@H]1CC(c2ccc(-c3ccc(N4C[C@H](Cn5ccnn5)OC4=O)cc3F)cn2)=NO1", "180 to 187 °C"),
    ("CC(C)(C)OC(=O)COC[C@@H]1CC(c2ccc(-c3ccc(N4C[C@H](Cn5ccnn5)OC4=O)cc3F)cn2)=NO1", "186 °C"),
    ("CC[C@H](C)[C@H](N)C(=O)OCCOC[C@@H]1CC(c2ccc(-c3ccc(N4C[C@H](Cn5ccnn5)OC4=O)cc3F)cn2)=NO1 (as salt: HCl)", "119 °C"),
    ("CS(=O)(=O)NCCOC[C@@H]1CC(c2ccc(-c3ccc(N4C[C@H](Cn5ccnn5)OC4=O)cc3F)cn2)=NO1", "170 °C"),
    ("N#CCOC[C@@H]1CC(c2ccc(-c3ccc(N4C[C@H](Cn5ccnn5)OC4=O)cc3F)cn2)=NO1", "90 to 115 °C"),
]
